Source listed as the Human Domainome abundance scans (Beltran et al. 2025).

B1: POU domain, class 4, transcription factor 1, residues 266 to 347; numbered along this chain, Q01851 (parent)
chain: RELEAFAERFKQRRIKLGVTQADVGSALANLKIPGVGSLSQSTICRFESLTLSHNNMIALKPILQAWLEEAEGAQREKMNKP

# Variants of: B1
# Assay explanation: abundance fitness (aPCA) (normalised: wild type 0, dead -1); higher = more abundant; growth selection in yeast, the domain comes from the species named
# Applied conditions: Homo sapiens
abundance fitness for assorted variants

>  <Mutations>
T43F

>  <abundance fitness>
-0.587

$$$$
>  <Mutations>
P62F

>  <abundance fitness>
-0.518

$$$$
>  <Mutations>
A5S

>  <abundance fitness>
-0.005

$$$$
>  <Mutations>
P34F

>  <abundance fitness>
-0.097

$$$$
>  <Mutations>
P62R

>  <abundance fitness>
-0.347

$$$$
>  <Mutations>
L52V

>  <abundance fitness>
-0.588

$$$$
>  <Mutations>
N55W

>  <abundance fitness>
-0.023

$$$$
>  <Mutations>
L68C

>  <abundance fitness>
-0.29

$$$$
>  <Mutations>
K78W

>  <abundance fitness>
0.007

$$$$
>  <Mutations>
E70W

>  <abundance fitness>
-0.311

$$$$
>  <Mutations>
S49Y

>  <abundance fitness>
-0.396

$$$$
>  <Mutations>
A5N

>  <abundance fitness>
0.106

$$$$
>  <Mutations>
Q21F

>  <abundance fitness>
-0.072

$$$$
>  <Mutations>
C45F

>  <abundance fitness>
-0.108

$$$$
>  <Mutations>
Q65C

>  <abundance fitness>
-0.14

$$$$
>  <Mutations>
A22Y

>  <abundance fitness>
0.043

$$$$
>  <Mutations>
T43R

>  <abundance fitness>
-0.483

$$$$
>  <Mutations>
N55L

>  <abundance fitness>
-0.016

$$$$
>  <Mutations>
V19R

>  <abundance fitness>
-0.019

$$$$
>  <Mutations>
G37E

>  <abundance fitness>
0.015

$$$$
>  <Mutations>
E72L

>  <abundance fitness>
-0.431

$$$$
>  <Mutations>
Q41Y

>  <abundance fitness>
-0.194

$$$$
>  <Mutations>
D23C

>  <abundance fitness>
-0.185

$$$$
>  <Mutations>
R46V

>  <abundance fitness>
-0.503

$$$$
>  <Mutations>
L64C

>  <abundance fitness>
-0.499

$$$$
